- measuredOn: HLA-B*57:01
- assayOverview: IEDB peptide-MHC binding, purified MHC/direct/fluorescence; filed as Kd, often an IC50 or EC50 that approximates it; bounds were set here for any values at or beyond the usual limits of such assays
- testParameters: source organism: Orthohantavirus andesense
pKd: −log10 of the molar value.
valueKind: pKd

Record for TRDHVNLVL under target or system HLA-B*57:01: pKd reported as ≤ 4.70

====

- measuredOn: HLA-A*68:02
- assayOverview: IEDB peptide-MHC binding, purified MHC/direct/fluorescence; filed as Kd, often an IC50 or EC50 that approximates it; bounds were set here for any values at or beyond the usual limits of such assays
- testParameters: source organism: Limestone Canyon virus
valueKind: Kd

YRTLGVFRY has a reported Kd of ≥ 20 µM

====

- measuredOn: HLA-B*07:02
- assayOverview: IEDB peptide-MHC binding, purified MHC/direct/fluorescence; filed as Kd, often an IC50 or EC50 that approximates it; bounds were set here for any values at or beyond the usual limits of such assays
- testParameters: source organism: Influenza A virus (A/duck/Mongolia/47/2001(H7N1))
pKd: −log10 of the molar value.
valueKind: pKd

NESGRLIDF has a reported pKd of ≤ 4.70

====

- measuredOn: HLA-A*31:01
- assayOverview: IEDB peptide-MHC binding, purified MHC/direct/fluorescence; filed as Kd, often an IC50 or EC50 that approximates it; bounds were set here for any values at or beyond the usual limits of such assays
- testParameters: source organism: SARS-CoV1
valueKind: Kd (nM)
Express your answer in nM, writing the number without its unit.

KQYNVTQAF has a reported Kd of 448

====

- measuredOn: HLA-B*08:01
- assayOverview: IEDB peptide-MHC binding, purified MHC/competitive/radioactivity; filed as Kd, often an IC50 or EC50 that approximates it; bounds were set here for any values at or beyond the usual limits of such assays
- testParameters: source organism: Vaccinia virus Copenhagen
valueKind: Kd (nM)
Express your answer in nM, writing the number without its unit.

{"residues": "WCRLKFHIV", "valueKind": "Kd", "measuredValue": 81.9}

--- query ---
MLILNFCKL has a reported Kd of 3.91

====

- measuredOn: HLA-B*18:01
- assayOverview: IEDB peptide-MHC binding, purified MHC/competitive/fluorescence; filed as Kd, often an IC50 or EC50 that approximates it; bounds were set here for any values at or beyond the usual limits of such assays
- testParameters: source organism: Mycobacterium tuberculosis variant bovis BCG str. Pasteur 1173P2
pKd: −log10 of the molar value.
valueKind: pKd

HLTRVGPYL has a reported pKd of ≤ 4.70

====

- measuredOn: HLA-B*39:01
- assayOverview: IEDB peptide-MHC binding, purified MHC/competitive/fluorescence; filed as Kd, often an IC50 or EC50 that approximates it; bounds were set here for any values at or beyond the usual limits of such assays
- testParameters: source organism: Araucaria virus
pKd: −log10 of the molar value.
valueKind: pKd

AQKLATKPV has a reported pKd of ≤ 4.70

====

- measuredOn: HLA-A*11:01
- assayOverview: IEDB peptide-MHC binding, purified MHC/competitive/fluorescence; filed as Kd, often an IC50 or EC50 that approximates it; bounds were set here for any values at or beyond the usual limits of such assays
- testParameters: source organism: Burkholderia mallei SAVP1
valueKind: Kd

Record for NVMDPMHGA under target or system HLA-A*11:01: Kd reported as ≥ 5 µM

====

- measuredOn: HLA-B*18:01
- assayOverview: IEDB peptide-MHC binding, purified MHC/direct/fluorescence; filed as Kd, often an IC50 or EC50 that approximates it; bounds were set here for any values at or beyond the usual limits of such assays
- testParameters: source organism: Yersinia pestis
Measured Kd values are reported for all entries that follow.

{"residues": "RVFNGDDVK", "Kd": "≥ 20 µM"}

--- query ---
SRWAISHWL has a reported Kd of ≥ 20 µM

====

- measuredOn: HLA-A*32:01
- assayOverview: IEDB peptide-MHC binding, purified MHC/competitive/radioactivity; filed as Kd, often an IC50 or EC50 that approximates it; bounds were set here for any values at or beyond the usual limits of such assays
- testParameters: source organism: Lassa virus Josiah
valueKind: Kd (µM)
Express your answer in µM, writing the number without its unit.

Record for CWLVSNGSY under target or system HLA-A*32:01: Kd reported as 18.8

====

- measuredOn: HLA-B*18:01
- assayOverview: IEDB peptide-MHC binding, purified MHC/direct/fluorescence; filed as Kd, often an IC50 or EC50 that approximates it; bounds were set here for any values at or beyond the usual limits of such assays
- testParameters: source organism: Vibrio cholerae
valueKind: Kd

AADFPGIAR has a reported Kd of ≥ 20 µM

====

- measuredOn: HLA-A*11:01
- assayOverview: IEDB peptide-MHC binding, purified MHC/direct/fluorescence; filed as Kd, often an IC50 or EC50 that approximates it; bounds were set here for any values at or beyond the usual limits of such assays
- testParameters: source organism: Influenza A virus (A/SW/MN/12883/00(H1N2))
valueKind: Kd

Record for FPNEVGARI under target or system HLA-A*11:01: Kd reported as ≥ 20 µM

====

- measuredOn: HLA-B*40:01
- assayOverview: IEDB peptide-MHC binding, purified MHC/direct/fluorescence; filed as Kd, often an IC50 or EC50 that approximates it; bounds were set here for any values at or beyond the usual limits of such assays
- testParameters: source organism: Francisella tularensis subsp. holarctica LVS
valueKind: pKd
On this scale, pKd is minus log10 of a concentration expressed in M (mol/L).

VEIGLGMPF has a reported pKd of 7.77

====

- measuredOn: HLA-A*03:01
- assayOverview: IEDB peptide-MHC binding, purified MHC/competitive/radioactivity; filed as Kd, often an IC50 or EC50 that approximates it; bounds were set here for any values at or beyond the usual limits of such assays
- testParameters: source organism: Lassa virus Josiah
valueKind: pKd
On this scale, pKd is minus log10 of a concentration expressed in M (mol/L).

{"residues": "GIPYCNYSK", "pKd": 5.48}

MLQKEYMER has a reported pKd of 4.96

====

- measuredOn: HLA-B*08:01
- assayOverview: IEDB peptide-MHC binding, purified MHC/direct/fluorescence; filed as Kd, often an IC50 or EC50 that approximates it; bounds were set here for any values at or beyond the usual limits of such assays
- testParameters: source organism: Influenza A virus (A/duck/Mongolia/47/2001(H7N1))
valueKind: Kd

NESGRLIDF has a reported Kd of ≥ 20 µM

====

- measuredOn: HLA-B*27:03
- assayOverview: IEDB peptide-MHC binding, purified MHC/competitive/fluorescence; filed as Kd, often an IC50 or EC50 that approximates it; bounds were set here for any values at or beyond the usual limits of such assays
- testParameters: source organism: Mycobacterium tuberculosis variant bovis BCG str. Pasteur 1173P2
pKd: −log10 of the molar value.
valueKind: pKd

HLTRVGPYL has a reported pKd of ≤ 4.70

====

- measuredOn: HLA-A*02:06
- assayOverview: IEDB peptide-MHC binding, purified MHC/competitive/radioactivity; filed as Kd, often an IC50 or EC50 that approximates it; bounds were set here for any values at or beyond the usual limits of such assays
- testParameters: source organism: Dengue virus 2 Jamaica/1409/1983
valueKind: Kd (nM)
Express your answer in nM, writing the number without its unit.

VILQNAWKV has a reported Kd of 4.45

====

- measuredOn: HLA-A*03:01
- assayOverview: IEDB peptide-MHC binding, purified MHC/direct/fluorescence; filed as Kd, often an IC50 or EC50 that approximates it; bounds were set here for any values at or beyond the usual limits of such assays
- testParameters: source organism: Yersinia pestis
valueKind: pKd
On this scale, pKd is minus log10 of a concentration expressed in M (mol/L).

RVFNGDDVK has a reported pKd of 5.86

====

- measuredOn: HLA-B*39:01
- assayOverview: IEDB peptide-MHC binding, purified MHC/direct/fluorescence; filed as Kd, often an IC50 or EC50 that approximates it; bounds were set here for any values at or beyond the usual limits of such assays
- testParameters: source organism: Mycobacterium avium 104
valueKind: pKd
On this scale, pKd is minus log10 of a concentration expressed in M (mol/L).

Record for VRDVVMPAL under target or system HLA-B*39:01: pKd reported as 7.17

====

Measured pKd values are reported for all entries that follow.
- measuredOn: HLA-B*58:01
- assayOverview: IEDB peptide-MHC binding, purified MHC/direct/fluorescence; filed as Kd, often an IC50 or EC50 that approximates it; bounds were set here for any values at or beyond the usual limits of such assays
- testParameters: source organism: Giardia lamblia ATCC 50803
pKd: −log10 of the molar value.

Completed entries (count: 2):
{"residues": "KVGVYKMHK", "pKd": "≤ 4.70"}
{"residues": "YLDMVLAFL", "pKd": "≤ 4.70"}

--- query ---
Record for DEKPKVMEG under target or system HLA-B*58:01: pKd reported as ≤ 4.70
